Data credit: PubChem BioAssay (NCI)

// TGI lookup, one value per entry
tested on: SNB-75 CNS; test: NCI tumour cell line growth inhibition, 48 h

// solved cases for TGI follow
C[C@@]1(c2ncncc2F)NC(=O)c2cc(-c3cn[nH]c3)ccc21 ... 40.3 µM
CN(C)c1ccc(/C=C2\N=C(N/N=C/c3ccccc3)NC2=O)cc1 ... > 100 µM
COc1ccc2c(c1)N(C(C)=O)CN1C(=O)CCC21 (centres undefined) ... > 100 µM
O=C(O)c1ccc(N=Nc2cc(S(=O)(=O)O)c3cccnc3c2O)cc1 ... > 100 µM
O=c1oc2ccccc2cc1-c1nnc(-c2ccccc2)s1 ... 45.6 µM

The molecule identified as CC1=CC2(O)OC3(CC2=C(C)C)C(C)CCC13 (centres undefined) registered its TGI at > 100 µM

The molecule identified as `CCN(CC)Cc1ccc2cccnc2c1O` registered its TGI at 12.7 µM
